test: CHI Log D procedure; assay type: physicochemical; conditions: pH 7.4
# CHI Log D annotations
Just the number.

Recorded CHI Log D, per entry:
{"molecule": "CC(=O)N1CCC[C@]12CC=CCCCC1(CCCC=CCCCCCC[C@@](C)(C(=O)N[C@@H](Cc3ccccc3)C(=O)N[C@@H](Cc3csc4ccccc34)C(=O)N[C@@H](CCC(N)=O)C(N)=O)NC(=O)[C@H](C(C)C)NC(=O)[C@H](Cc3ccccc3)NC(=O)[C@H](C)NC(=O)[C@H](C)NC(=O)[C@H](CC(=O)O)NC(=O)[C@H](CC(=O)O)NC1=O)NC(=O)[C@H](CCC(N)=O)NC(=O)[C@H](CC(=O)O)NC2=O (stereo partly shown) [I-346]", "measurementLabel": "CHI Log D", "numericReadout": 1.943}
{"molecule": "CCCC[C@@H]1NC(=O)[C@H](CC(=O)O)NC(=O)[C@](C)(NC(=O)[C@@H](NC(=O)[C@H](CC(=O)O)NC(=O)[C@H](C)NC(C)=O)[C@@H](C)CC)CCN(C)C(=O)OCC=CCCCCC[C@@](C)(C(=O)N[C@@H](Cc2ccccc2)C(=O)N[C@@H](Cc2c[nH]c3ccccc23)C(=O)N[C@@H](Cc2c[nH]cn2)C(N)=O)NC(=O)[C@H](CCC(N)=O)NC(=O)[C@H](Cc2ccccc2)NC(=O)[C@H](C)NC(=O)[C@H](C)NC1=O [I-69]", "measurementLabel": "CHI Log D", "numericReadout": 1.593}

### Prompt So what's the measured CHI Log D for this one? CC(=O)N[C@@H](Cc1ccccc1)C(=O)N[C@@H](CC(=O)O)C(=O)N[C@@H](C)C(=O)N[C@]1(C)CCCCCCC=CCOC(=O)N2CC[C@@](C(=O)N[C@@H](Cc3ccccc3)C(=O)N[C@@H](Cc3c[nH]c4ccccc34)C(=O)N[C@@H](CCC(N)=O)C(N)=O)(C2)NC(=O)[C@H](C(C)C)NC(=O)[C@H](Cc2cccc(C(N)=O)c2)NC(=O)[C@H](C)NC(=O)[C@H](C)NC(=O)[C@H](CC(=O)O)NC(=O)[C@H](CC(=O)O)NC1=O [I-109]
### Response 1.223

### Prompt What about CC(=O)N[C@@H](Cc1ccccc1)C(=O)N[C@@H](CC(=O)O)C(=O)N[C@@H](C)C(=O)N[C@]1(C)CCCCCCC=CCOC(=O)N2CC[C@@](C(=O)N[C@@H](Cc3ccccc3)C(=O)N[C@@H](Cc3c[nH]c4ccccc34)C(=O)N[C@@H](CCC(N)=O)C(N)=O)(C2)NC(=O)[C@H](C(C)C)NC(=O)[C@H](Cc2ccccc2)NC(=O)[C@H](C)NC(=O)[C@H](C)NC(=O)[C@H](Cc2ccc3ccccc3c2)NC(=O)[C@H](CC(=O)O)NC1=O [I-115] ?
### Response 2.145

### Prompt What about CC(=O)N1CCC[C@]12CC=CCCCC1(CCCC=CCCCOC(=O)N3CC[C@@](C(=O)N[C@@H](Cc4ccsc4)C(=O)N[C@@H](Cc4csc5ccccc45)C(N)=O)(C3)NC(=O)[C@H](CC(N)=O)NC(=O)[C@H](Cc3ccccc3)NC(=O)[C@H](C)NC(=O)[C@H](C)NC(=O)[C@H]([C@@H](C)O)NC(=O)[C@H](CC(=O)O)NC1=O)NC(=O)[C@H](CC(C)(C)C)NC(=O)[C@H](CC(=O)O)NC2=O (stereo partly shown) [I-859] ?
### Response 2.711

### Prompt What about CC(=O)N1CCC[C@]12CC=CCCCC1(CCCC=CCCCOC(=O)N3CC[C@@](C(=O)N[C@@H](Cc4ccsc4)C(=O)N[C@@H](Cc4csc5ccccc45)C(=O)N[C@@H](Cc4c[nH]cn4)C(N)=O)(C3)NC(=O)[C@H](CC(N)=O)NC(=O)[C@H](Cc3ccccc3)NC(=O)[C@H](C)NC(=O)[C@H](C)NC(=O)[C@H](CC(=O)O)NC(=O)[C@H](CC(=O)O)NC1=O)NC(=O)[C@H](CC(C)(C)C)NC(=O)[C@H](CC(=O)O)NC2=O (stereo partly shown) [I-695] ?
### Response 2.117

###

target: beta-catenin/TCF4 engagement (Homo sapiens); construct: expressed in transfected cells; host or cells: HEK293; assay: Nano-BRET target engagement assay (B-cat-Halo & TCF4-Luc in HEK293 cells); assay type: cell-based; conditions: read-out: NanoBRET Abs IC50
Sequence (P35222 whole entry): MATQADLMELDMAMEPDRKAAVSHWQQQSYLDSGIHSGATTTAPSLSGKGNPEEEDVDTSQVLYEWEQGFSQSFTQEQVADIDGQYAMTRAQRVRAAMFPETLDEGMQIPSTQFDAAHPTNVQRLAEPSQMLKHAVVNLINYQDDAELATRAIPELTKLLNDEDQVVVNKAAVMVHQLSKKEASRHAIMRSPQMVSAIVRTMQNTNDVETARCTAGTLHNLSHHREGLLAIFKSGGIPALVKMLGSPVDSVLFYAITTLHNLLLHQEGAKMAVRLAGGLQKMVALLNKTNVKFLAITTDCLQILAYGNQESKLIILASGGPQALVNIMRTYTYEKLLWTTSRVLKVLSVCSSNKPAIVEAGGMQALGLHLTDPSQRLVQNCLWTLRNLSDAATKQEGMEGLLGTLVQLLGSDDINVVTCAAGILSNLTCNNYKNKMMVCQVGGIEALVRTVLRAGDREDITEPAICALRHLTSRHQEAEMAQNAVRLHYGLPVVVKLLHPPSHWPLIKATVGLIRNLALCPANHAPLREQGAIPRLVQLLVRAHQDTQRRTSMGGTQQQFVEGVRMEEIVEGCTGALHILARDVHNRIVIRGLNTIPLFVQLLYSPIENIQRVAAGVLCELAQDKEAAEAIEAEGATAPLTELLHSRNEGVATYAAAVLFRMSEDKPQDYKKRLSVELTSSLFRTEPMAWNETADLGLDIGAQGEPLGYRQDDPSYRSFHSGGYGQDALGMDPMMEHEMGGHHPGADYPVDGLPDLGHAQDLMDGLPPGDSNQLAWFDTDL
# pIC50 annotations
Please keep in mind that pIC50 is minus log10 of the molar concentration; only the number is needed.

Recorded pIC50, per entry:
{"compound": "CC(=O)N1CCC[C@]12CC=CCCCC1(CCCC=CCCCOC(=O)N3CC[C@@](C(=O)N[C@@H](Cc4ccsc4)C(=O)N[C@@H](Cc4csc5ccccc45)C(=O)N[C@@H](CC(N)=O)C(N)=O)(C3)NC(=O)[C@H](C)NC(=O)[C@H](Cc3ccccc3)NC(=O)[C@H](C)NC(=O)[C@H](C)NC(=O)[C@H](Cc3cccc(C(=O)O)c3)NC(=O)[C@H](CC(=O)O)NC1=O)NC(=O)[C@H](CC(C)(C)C)NC(=O)[C@H](CC(=O)O)NC2=O (stereo partly drawn) [I-2042]", "pIC50": 5.00}
{"compound": "CC(=O)N1CCC[C@]12CC=CCCCC1(CCCC=CCCCOC(=O)N3CC[C@@](C(=O)N[C@@H](Cc4cccc5ccccc45)C(=O)N[C@@H](Cc4csc5ccccc45)C(=O)N[C@@H](Cc4c[nH]cn4)C(N)=O)(C3)NC(=O)[C@H](CC(N)=O)NC(=O)[C@H](Cc3ccccc3)NC(=O)[C@H](C)NC(=O)[C@H](C)NC(=O)[C@H](CC(=O)O)NC(=O)[C@H](CC(=O)O)NC1=O)NC(=O)[C@H](CC(C)(C)C)NC(=O)[C@H](CC(=O)O)NC2=O (stereo partly drawn) [I-794]", "pIC50": 4.58}

Turning to the following compound.
### Prompt Report pIC50 for CC(=O)N1CCC[C@]12CC=CCCCC1(CCCC=CCCCOC(=O)N3CC[C@@](C(=O)N[C@@H](Cc4ccsc4)C(=O)N[C@@H](Cc4csc5ccccc45)C(=O)N[C@@H](CO)C(N)=O)(C3)NC(=O)[C@H](CC(N)=O)NC(=O)[C@H](Cc3ccccc3)NC(=O)[C@H](C)NC(=O)[C@H](C)NC(=O)[C@H](CC(=O)O)NC(=O)[C@H](CC(=O)O)NC1=O)NC(=O)[C@H](CC(C)(C)C)NC(=O)[C@H](CC(=O)O)NC2=O (stereo partly drawn) [I-815] tested on beta-catenin/TCF4 engagement (Homo sapiens).
### Response 4.81

###

molecular target: full-length beta-Catenin (Uniprot ID P35222) (Homo sapiens); construct: 10 nM full-length beta-Catenin (Uniprot ID P35222); test: Fluorescence polarization IC50 (beta-catenin / 5FAM-TCF4 10-53 competition); assay type: binding; conditions: fluorescence polarization; read-out: beta-Catenin FP IC50
Sequence (P35222 whole entry): as above
measurementLabel: pIC50
Please keep in mind that pIC50 is minus log10 of the molar concentration; only the number is needed.

Recorded pIC50, per entry:
{"molecule": "CC(=O)N1CCC[C@]12CC=CCCCC1(CCCC=CCCCOC(=O)N3CC[C@@](C(=O)N[C@@H](Cc4ccsc4)C(=O)N[C@@H](Cc4csc5ccccc45)C(=O)N[C@@H](CCC(N)=O)C(N)=O)(C3)NC(=O)[C@H](CC(C)C)NC(=O)[C@H](Cc3ccccc3)NC(=O)[C@H](C)NC(=O)[C@H](C)NC(=O)[C@H](CCn3cc(-c4ccccc4C(=O)O)nn3)NC(=O)[C@H](CC(=O)O)NC1=O)NC(=O)[C@H](CC(C)(C)C)NC(=O)[C@H](CC(=O)O)NC2=O (some centres unmarked) [I-2080]", "pIC50": 7.35}
{"molecule": "CC(=O)N1CCC[C@]12CC=CCCCC1(CCCC=CCCCOC(=O)N3CC[C@@](C(=O)N[C@@H](Cc4ccccc4Cl)C(=O)N[C@@H](Cc4csc5ccccc45)C(=O)N[C@@H](CO)C(N)=O)(C3)NC(=O)[C@H](C)NC(=O)[C@H](Cc3ccccc3)NC(=O)[C@H](C)NC(=O)[C@H](C)NC(=O)[C@H](Cc3cccc(C(=O)O)c3)NC(=O)[C@H](CC(=O)O)NC1=O)NC(=O)[C@H](CC(C)(C)C)NC(=O)[C@H](CC(=O)O)NC2=O (some centres unmarked)", "pIC50": 7.72}
{"molecule": "CC(=O)N1CCC[C@]12CC=CCCCC1(CCCC=CCCCOC(=O)N3CCC(C(=O)N[C@@H](Cc4ccccc4C(F)(F)F)C(=O)N[C@@H](Cc4csc5ccccc45)C(=O)N[C@@H](C)C(N)=O)(CC3)NC(=O)[C@H](CC(C)C)NC(=O)[C@H](Cc3ccccc3)NC(=O)[C@H](C)NC(=O)[C@H](CCC(N)=O)NC(=O)[C@H](Cc3cccc(C(=O)O)c3)NC(=O)[C@H](CC(=O)O)NC1=O)NC(=O)[C@H](CC(C)(C)C)NC(=O)[C@H](CC(=O)O)NC2=O (some centres unmarked) [I-2586]", "pIC50": 6.46}
{"molecule": "CC(=O)N1CCC[C@]12CC=CCCCC1(CCCC=CCCCOC(=O)N3CC[C@@](C(=O)N[C@@H](Cc4ccsc4)C(=O)N[C@@H](Cc4csc5ccccc45)C(=O)N[C@@H](CCC(N)=O)C(N)=O)(C3)NC(=O)[C@H](CC(N)=O)NC(=O)[C@H](Cc3cccc(C(=O)O)c3)NC(=O)[C@H](C)NC(=O)[C@H](C)NC(=O)[C@H](CCc3ccc(O)cc3)NC(=O)[C@H](CC(=O)O)NC1=O)NC(=O)[C@H](CC(C)(C)C)NC(=O)[C@H](CC(=O)O)NC2=O (some centres unmarked) [I-2114]", "pIC50": 7.49}

### Prompt So what's the measured pIC50 for this one? CC(=O)N1CCC[C@]12CC=CCCCC1(CCCC=CCOC(=O)N3CC(C(=O)N[C@@H](Cc4ccsc4)C(=O)N[C@@H](Cc4csc5ccccc45)C(=O)N[C@@H](CCC(N)=O)C(N)=O)(C3)NC(=O)[C@H](CC(N)=O)NC(=O)[C@H](Cc3ccccc3)NC(=O)[C@H](C)NC(=O)[C@H](C)NC(=O)[C@H](CC(=O)O)NC(=O)[C@H](CC(=O)O)NC1=O)NC(=O)[C@H](CC(C)(C)C)NC(=O)[C@H](CC(=O)O)NC2=O (some centres unmarked) [I-1827]
### Response 6.51
